Ref: patent US20110077237A1

Biological target: PKC delta kinase (Homo sapiens, UniProt Q05655)
Sequence (Q05655 whole entry): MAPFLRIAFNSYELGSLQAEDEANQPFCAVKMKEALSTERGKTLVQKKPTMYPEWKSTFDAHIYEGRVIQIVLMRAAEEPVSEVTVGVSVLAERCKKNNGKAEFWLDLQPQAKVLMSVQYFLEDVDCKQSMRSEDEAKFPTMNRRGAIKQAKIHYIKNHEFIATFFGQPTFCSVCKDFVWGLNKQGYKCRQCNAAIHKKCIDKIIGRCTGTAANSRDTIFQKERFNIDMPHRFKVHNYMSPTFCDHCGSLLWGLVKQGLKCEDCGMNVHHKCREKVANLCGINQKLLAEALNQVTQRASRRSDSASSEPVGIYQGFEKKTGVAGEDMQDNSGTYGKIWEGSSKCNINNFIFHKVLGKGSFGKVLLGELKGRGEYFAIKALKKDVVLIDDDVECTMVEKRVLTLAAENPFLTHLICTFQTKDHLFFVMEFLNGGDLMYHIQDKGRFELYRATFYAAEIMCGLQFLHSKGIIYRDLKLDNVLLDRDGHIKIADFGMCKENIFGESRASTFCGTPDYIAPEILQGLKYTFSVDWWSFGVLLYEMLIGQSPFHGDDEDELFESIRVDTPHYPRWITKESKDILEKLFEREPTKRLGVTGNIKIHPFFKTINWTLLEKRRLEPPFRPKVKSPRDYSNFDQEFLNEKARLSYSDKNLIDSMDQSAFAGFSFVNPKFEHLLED
Assay: PKC Delta coupled-enzyme kinase assay
Format: biochemical
Conditions: 46 nM PKC delta, 150 μM ATP, 30° C.; read-out: Ki PKC delta
Measured Parameter: Ki

Return reported Ki; argument: C=Cc1cnc(N)c(C(=O)c2cccc(N3CCNC(c4ccccc4)C3)n2)c1 (centres unmarked) [compound 241]
50 to 500 nM

Find the recorded Ki belonging to CC(C)C[C@H]1CN(c2ccc(C#CC3CC3)c(C(=O)c3cccnc3N)n2)CCN1 [compound 407] and report it.
500 to 2800 nM

# input compound: COc1cccc(C2CN(c3cccc(C(=O)c4cccnc4N)n3)CCN2)c1 (centres unmarked) [compound 309] ; wanted: its Ki
500 to 2800 nM

Find the recorded Ki belonging to Nc1ncccc1C(=O)c1ccn(C2CCCNCC2)n1 (centres unmarked) [compound 203] and report it.
500 to 2800 nM

# query: Ki of entry Nc1ncc(-c2cccc(O)c2)cc1C(=O)c1cccc(N2CCNC(c3ccccc3)C2)n1 (centres unmarked) [compound 260]
50 to 500 nM

Field request: Ki | item: C=Cc1cnc(N)c(C(=O)c2cccc(N3CCN[C@@H](CC(C)C)C3)n2)c1 [compound 233]
50 to 500 nM

Could you tell me which Ki is on file for CC(C)C[C@H]1CN(c2ccc(OC(F)F)c(C(=O)c3cccnc3N)n2)CCN1 [compound 356] ?
50 to 500 nM

Entry Nc1ccc(-c2cnc(N)c(C(=O)c3cccc(N4CCCNCC4)n3)c2)cc1 [compound 170] : reported Ki = ?
50 to 500 nM

====

Target: PKC delta kinase (Homo sapiens, UniProt Q05655)
Test: PKC Delta coupled-enzyme kinase assay
Type: biochemical
Conditions: 46 nM PKC delta, 150 μM ATP, 30° C.; read-out: Ki PKC delta
Exercise: for every item that follows, state its recorded Ki.

Reported Ki, molecule `N#CC1(c2cccc(C(=O)c3cccnc3N)n2)CCNCC1` : ____
50 to 500 nM

So what's the measured Ki for this one? `CCCNc1ccc(C(F)(F)F)c(C(=O)c2cccnc2N)n1`
500 to 2800 nM

Which measured Ki value corresponds to `CC(C)C[C@H]1CN(c2ccnc(C(=O)c3cccnc3N)n2)CCN1` ?
> 2800 nM

So what does the record say about Ki for Nc1ncccc1C(=O)c1nc(N2CCNC(c3ccccc3)C2)ccc1Cl (stereo not drawn) ?
50 to 500 nM

For the molecule shown here, Nc1ncccc1C(=O)c1nc(NCC2CCCN2)ccc1C(F)(F)F (stereo not drawn) , give the reported Ki.
500 to 2800 nM

# query: Ki of entry `Cc1ccc(N2CCNCC2)nc1C(=O)c1cccnc1N`
500 to 2800 nM

If you can, please state the reported Ki value of `CC(C)N1CCN(c2cccc(C(=O)c3cc(Br)cnc3N)n2)CC1` .
50 to 500 nM

Looking for the measured Ki of `Nc1ncc(-c2csc3ccccc23)cc1C(=O)c1cccc(N2CCCNCC2)n1` , can you help?
50 to 500 nM

// returns reported Ki for input `CC(C)C[C@H](N)CNc1ccc(C(F)(F)F)c(C(=O)c2cccnc2N)n1`
50 to 500 nM

====

Answer each item with its documented pKi.
Biological target: PKC delta kinase (Homo sapiens)
Assay: PKC Delta coupled-enzyme kinase assay
Format: biochemical
Conditions: 46 nM PKC delta, 150 μM ATP, 30° C.; read-out: Ki PKC delta
pKi: −log10 of the molar value.

# lookup: pKi of `Nc1ncc(C2CC2)cc1C(=O)c1cccc(N2CCCNCC2)n1`
6.30 to 7.30

Please report the recorded pKi for `Nc1ncc(Br)cc1C(=O)c1cccc(N2CCCNCC2)n1` .
6.30 to 7.30

Value lookup for pKi; key = `Nc1ncc(Br)cc1C(=O)c1cccc(N2CCCN(CCO)CC2)n1`
6.30 to 7.30

Item COc1cccc(C2CN(c3ccc(C(F)(F)F)c(C(=O)c4cccnc4N)n3)CCN2)c1 (stereo not drawn) has what recorded pKi?
6.30 to 7.30

Can you share its pKi? I mean this compound: Nc1ncccc1C(=O)c1nc(N2CCC(N)C2)ccc1C(F)(F)F (stereo not drawn)
5.55 to 6.30

Look up pKi: Nc1ncccc1C(=O)c1cccc(N2CCNC(c3ccc(O)cc3)C2)n1 (stereo not drawn)
6.30 to 7.30

Report pKi for `NCCNc1ccc(C(F)(F)F)c(C(=O)c2cccnc2N)n1` please.
5.55 to 6.30

Given the compound `COc1ccc(-c2cnc(N)c(C(=O)c3cccc(N4CCCNCC4)n3)c2)cc1` , what is its reported pKi?
6.30 to 7.30

// lookup pKi for Cc1ccc(C2CN(c3cccc(C(=O)c4cccnc4N)n3)CCN2)cc1 (stereo not drawn)
5.55 to 6.30

I would be grateful if you could share the reported pKi for `CC(C)(O)C(=O)N1CCCN(c2cccc(C(=O)c3cccnc3N)n2)CC1` .
< 5.55

Given `CC(C)C[C@H]1CN(c2cccc(C(=O)c3cccnc3N)n2)CCN1C(=O)CC(F)(F)F` , state its recorded pKi.
< 5.55

GET /values?readout=pKi&item= `Nc1ncc(Br)cc1C(=O)c1cccc(N2CCCN(C(=O)CC(F)(F)F)CC2)n1`
6.30 to 7.30

What measured pKi goes with `Nc1ncccc1C(=O)c1nc(NCCCO)ccc1C(F)(F)F` ?
5.55 to 6.30

Report pKi for N#Cc1ccccc1-c1cnc(N)c(C(=O)c2cccc(N3CCNC(c4ccccc4)C3)n2)c1 (stereo not drawn) please.
6.30 to 7.30

Entry under review: `Nc1ncccc1C(=O)c1nc(N2CCNCC2)cnc1Cl` . Reported pKi?
6.30 to 7.30

Requested field: pKi. Item: `Cc1ccccc1-c1cnc(N)c(C(=O)c2cccc(N3CCCNCC3)n2)c1`
5.55 to 6.30

Query (compound): `CC#Cc1ccc(N2CCNCC2)nc1C(=O)c1cccnc1N` ; field requested: pKi
6.30 to 7.30

Sample `Nc1ncccc1C(=O)c1nc(Cl)cnc1N1CCNCC1` — what was its pKi?
< 5.55
